measurement-target: CDK2 (Homo sapiens)
Construct: made in house
experiment: Liability panel screening by DSF: CDK2
Format: binding
run-parameters: DSF, 20 µM, n=2; read-out: Mean ΔTM CDK2
Protocol: Reference ligands are listed in the methods section. In-house produced recombinantly expressed proteins[62] of the liability panel targets were diluted in a buffer containing 10 mM HEPES (pH 7.5) and 500 mM NaCl to a concentration of 2 µM. SYPRO Orange (Invitrogen, Carlsbad, California, USA; #S6650) as a fluorescence probe was added at a 1:1000 dilution to the proteins. […]
recorded-metric: ΔTm at 20 µM (°C)
Return type: number; implicit unit °C.

Below, each entry is followed by its recorded ΔTm at 20 µM result.
{"compound": "CC(=O)O[C@]1(C(C)=O)CC[C@H]2[C@@H]3C=C(Cl)C4=CC(=O)[C@@H]5C[C@@H]5[C@]4(C)[C@H]3CC[C@@]21C [Cyproterone acetate]", "unit-symbol": "°C", "ΔTm at 20 µM": 0.15}
{"compound": "CC(=O)OCC(=O)[C@@]1(O)CC[C@H]2[C@@H]3CCC4=CC(=O)CC[C@]4(C)[C@@]3(F)[C@@H](O)C[C@@]21C [Fludrocortisone acetate]", "unit-symbol": "°C", "ΔTm at 20 µM": -0.73}

*Q* Give ΔTm at 20 µM for C#C[C@]1(O)CC[C@H]2[C@@H]3CCc4cc(O)ccc4[C@H]3CC[C@@]21C [Ethinylestradiol]
*A* -0.25

*Q* Give reported ΔTm at 20 µM value for CCN(CC)c1ccc(/C=N/NC(=O)c2ccc(O)cc2)cc1 [DY131]
*A* 0.35

*Q* Note ΔTm at 20 µM for the compound shown: C[C@@H]1Cc2c([nH]c3ccccc23)[C@@H](c2c(F)cc(/C=C/C(=O)O)cc2F)N1CC(C)(C)F [AZD9496]
*A* -0.07

*Q* Return ΔTm at 20 µM (reported value) for this compound: CC/C(=C(/CC)c1ccc(O)cc1)c1ccc(O)cc1 [Diethylstilbestrol]
*A* -5.57

*Q* Read off the recorded ΔTm at 20 µM for Oc1ccc(-c2nc3cc(O)cc(Br)c3o2)cc1 [WAY200070]
*A* 1.93

---

measurement-target: FGFR3 (Homo sapiens, UniProt P22607)
Construct: made in house
Sequence (P22607 23-806, species assumed): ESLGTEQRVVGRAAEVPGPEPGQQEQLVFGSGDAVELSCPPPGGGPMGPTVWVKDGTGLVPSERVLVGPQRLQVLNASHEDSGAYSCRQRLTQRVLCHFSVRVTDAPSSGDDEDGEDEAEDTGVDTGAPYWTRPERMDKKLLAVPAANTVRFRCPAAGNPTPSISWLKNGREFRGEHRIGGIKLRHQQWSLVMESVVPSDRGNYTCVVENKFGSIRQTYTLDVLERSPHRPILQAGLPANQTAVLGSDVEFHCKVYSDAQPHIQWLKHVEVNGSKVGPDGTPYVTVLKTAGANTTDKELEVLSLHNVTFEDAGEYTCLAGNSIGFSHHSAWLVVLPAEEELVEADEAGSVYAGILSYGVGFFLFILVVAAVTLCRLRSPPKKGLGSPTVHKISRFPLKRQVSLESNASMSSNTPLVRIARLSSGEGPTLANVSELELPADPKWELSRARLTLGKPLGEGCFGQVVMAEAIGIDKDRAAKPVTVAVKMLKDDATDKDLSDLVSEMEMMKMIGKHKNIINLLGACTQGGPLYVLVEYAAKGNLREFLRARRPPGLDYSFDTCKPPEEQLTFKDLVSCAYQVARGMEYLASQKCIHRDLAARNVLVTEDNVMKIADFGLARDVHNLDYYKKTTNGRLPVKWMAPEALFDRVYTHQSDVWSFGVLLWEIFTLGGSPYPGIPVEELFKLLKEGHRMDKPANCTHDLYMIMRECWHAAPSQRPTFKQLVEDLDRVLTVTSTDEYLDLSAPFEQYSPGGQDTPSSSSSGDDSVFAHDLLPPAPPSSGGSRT
experiment: Liability panel screening by DSF: FGFR3
Type: binding
run-parameters: read-out: Mean ΔTM FGFR3
Would you please tag the item condition met when its ΔTm at 20 µM is -0.3 °C or above, and condition not met when it is below?

Solved cases below.
{"molecule": "CC(=O)Nc1ccc(OC[C@](C)(O)C(=O)Nc2ccc([N+](=O)[O-])c(C(F)(F)F)c2)cc1", "class": "condition met"}
{"molecule": "CCCc1c(-c2ccc(O)cc2)nn(-c2ccc(O)cc2)c1-c1ccc(O)cc1", "class": "condition not met"}
{"molecule": "C[C@]1(O)CC[C@H]2[C@@H]3CCC4=CC(=O)CCC4=C3C=C[C@@]21C", "class": "condition met"}
{"molecule": "O=S(=O)(Cc1ccccc1)Nc1ccc(-c2ccc3c(cnn3-c3ccc(F)cc3)c2)c(C(F)(F)F)c1", "class": "condition met"}

Moving on to another molecule below.
*Q* Say whether CC[C@@H]1Cc2cc(O)ccc2C2=C1c1ccc(O)cc1C[C@H]2CC [(R,R)-THC] shows ΔTm at 20 µM of -0.3 °C or more.
*A* condition met
